The reported measurements were obtained from patent US5281596A.

tested on: Vibrio anguillarum; assay: In vitro antibacterial activity on pathogenic bacteria for fish (agar MIC, Test Example 1); assay type: cell-based; conditions: Vibrio anguillarum, 20 h, Vibrio anguillarum strain NA8346, Mueller-Hinton agar, 25-30 °C, read-out: MIC (minimum growth-inhibition concentration)
outcome.measure: MIC (µg/mL)
One number for each entry, in µg/mL.

CCN1CCN(c2cc3c(cc2F)c(=O)c(C(=O)O)cn3C2CC2)CC1
0.025
O=C(O)c1cn(C2CC2)c2cc(N3CCN(CCO)CC3)c(F)cc2c1=O
0.1

Moving on to the next compound.
Problem: Requested field: MIC. Item: `CCOC(=O)c1cn(C2CC2)c2cc(N3CCN(CC)CC3)c(F)cc2c1=O`
Solution: 12.5
